- test system: human recombinant TDO2 enzyme (Homo sapiens, UniProt P48775)
- test protocol: Assay for TDO2 enzymatic activity determination
- recorded conditions: human recombinant TDO2, L-Trp 1 mM, room temperature one hour, kynurenine absorbance at 480 nm
pIC50: −log10 of the molar value.
quantity measured: pIC50

Fc1ccc2c(-c3cnn(CC4CCN(CC(F)(F)F)CC4)c3)c[nH]c2c1	5.00 to 6.00
FCCN1CCC(Cn2cc(-c3c[nH]c4cc(F)ccc34)cn2)CC1	> 6.00
Nc1ccc(-n2cc(-c3c[nH]c4cc(F)ccc34)cn2)nn1	5.00 to 6.00
CS(=O)(=O)CCn1cc(-c2c[nH]c3cc(F)c(F)cc23)cn1	5.00 to 6.00
CC(=O)NCCn1cc(-c2c[nH]c3cc(F)ccc23)cn1	5.00 to 6.00

Record pIC50 for all entries; do not skip any.
1. O=C1NCCN1CCn1cc(-c2c[nH]c3cc(F)ccc23)cn1
2. NC(=O)[C@H]1C[C@@H](n2cc(-c3c[nH]c4cc(F)ccc34)cn2)C1

1. 5.00 to 6.00
2. 5.00 to 6.00

Record pIC50 for all entries; do not skip any.
1. CN(C)C(=O)N1CCC(n2cc(-c3c[nH]c4cc(F)ccc34)cn2)CC1
2. Fc1ccc2c(-c3cnn(CC4CNC4)c3)c[nH]c2c1

5.00 to 6.00
> 6.00

* * *

- test system: human recombinant TDO2 enzyme (Homo sapiens)
- test protocol: Assay for TDO2 enzymatic activity determination
- recorded conditions: human recombinant TDO2, L-Trp 1 mM, room temperature one hour, kynurenine absorbance at 480 nm
pIC50: −log10 of the molar value.
quantity measured: pIC50

Cn1cc(-c2c[nH]c3cc(F)ccc23)cn1 [Example 73]	> 6.00
CNC(=O)Cn1cc(-c2c[nH]c3cc(F)ccc23)cn1 [Example 39]	5.00 to 6.00
CS(=O)(=O)N1CCC(Cn2cc(-c3c[nH]c4cc(F)ccc34)cn2)CC1 [Example 54]	5.00 to 6.00

Record pIC50 for all entries; do not skip any.
1. Fc1ccc2c(-c3cnn(CC4CCN(C5CC5)CC4)c3)c[nH]c2c1 [Example 52]
2. CNC(=O)CCn1cc(-c2c[nH]c3cc(F)ccc23)cn1 [Example 14]

["> 6.00", "5.00 to 6.00"]

* * *

- test system: murine mastocytoma P815 cells overexpressing hTDO2 (Homo sapiens, UniProt P48775)
- Sequence (P48775 whole entry): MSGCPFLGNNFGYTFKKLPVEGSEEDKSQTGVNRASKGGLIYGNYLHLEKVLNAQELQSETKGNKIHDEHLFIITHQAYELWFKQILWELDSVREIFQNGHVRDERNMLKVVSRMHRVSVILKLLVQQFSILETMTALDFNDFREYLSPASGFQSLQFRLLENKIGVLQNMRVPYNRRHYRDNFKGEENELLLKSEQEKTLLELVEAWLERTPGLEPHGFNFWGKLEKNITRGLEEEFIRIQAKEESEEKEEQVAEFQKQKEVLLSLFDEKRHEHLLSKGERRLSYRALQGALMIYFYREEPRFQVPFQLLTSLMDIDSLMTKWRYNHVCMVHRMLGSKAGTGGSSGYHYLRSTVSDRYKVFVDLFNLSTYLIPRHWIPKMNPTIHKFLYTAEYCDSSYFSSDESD
- test protocol: Cellular assay for TDO2 activity determination
- recorded conditions: P815 cells overexpressing hTDO2, overnight incubation at 37° C., kynurenine absorbance at 480 nm
quantity measured: IC50

Sample answers from the record:
CN1CCN(CCn2cc(-c3c[nH]c4cc(F)ccc34)cn2)CC1 [Example 19]	< 1 µM
CC(Cn1cc(-c2c[nH]c3cc(F)ccc23)cn1)C(N)=O (single isomer, unassigned) [Example 36]	< 1 µM
NC(=O)[C@H]1C[C@@H](n2cc(-c3c[nH]c4cc(F)ccc34)cn2)C1 [Example 61]	< 1 µM

Record IC50 for all entries; do not skip any.
1. CNC(=O)Cn1cc(-c2c[nH]c3cc(F)ccc23)cn1 [Example 39]
2. Fc1ccc2c(-c3cnn(CCN4CCOCC4)c3)c[nH]c2c1 [Example 20]

1: 1 to 10 µM; 2: 1 to 10 µM

* * *

- test system: murine mastocytoma P815 cells overexpressing hTDO2 (Homo sapiens, UniProt P48775)
- test protocol: Cellular assay for TDO2 activity determination
- recorded conditions: P815 cells overexpressing hTDO2, overnight incubation at 37° C., kynurenine absorbance at 480 nm
- Procedure: The assay was performed in 96-well flat bottom plates seeded with murine mastocytoma P815 cells overexpressing hTDO2 (prepared as described in Pilotte et al., PNAS, 2012, 109(7), 2497-2502), at a concentration of 5×10^4 cells/well in a final volume of 200 μL. […]
quantity measured: IC50

NC(=O)[C@H]1C[C@H](n2cc(-c3c[nH]c4cc(F)ccc34)cn2)C1 [Example 62]	1 to 10 µM
Fc1ccc2c(-c3cnn(CCN4CCNCC4)c3)c[nH]c2c1 [Example 27]	< 1 µM
Fc1ccc2c(-c3cnn(-c4ccncc4)c3)c[nH]c2c1 [Example 113]	< 1 µM
Fc1ccc2c(-c3cnn(CC4CCNCC4)c3)c[nH]c2c1 [Example 43]	< 1 µM
OC(CN1CCC(Cn2cc(-c3c[nH]c4cc(F)ccc34)cn2)CC1)C(F)(F)F (stereo not shown) [Example 48]	< 1 µM
CN(C)C(=O)Cn1cc(-c2c[nH]c3cc(F)ccc23)cn1 [Example 40]	1 to 10 µM

Record IC50 for all entries; do not skip any.
1. Fc1ccc2c(-c3cnn(CC4CNC4)c3)c[nH]c2c1 [Example 6]
2. CS(=O)(=O)N1CCC(Cn2cc(-c3c[nH]c4cc(F)ccc34)cn2)CC1 [Example 54]
3. CC(=O)N1CCC(n2cc(-c3c[nH]c4cc(F)ccc34)cn2)CC1 [Example 89]
4. OCCN1CCC(Cn2cc(-c3c[nH]c4cc(F)ccc34)cn2)CC1 [Example 47]
5. Fc1ccc2c(-c3cnn(-c4ccccn4)c3)c[nH]c2c1 [Example 111]
6. CS(=O)(=O)NCCn1cc(-c2c[nH]c3cc(F)ccc23)cn1 [Example 25]
7. NC(=O)NCCn1cc(-c2c[nH]c3cc(F)ccc23)cn1 [Example 22]
8. Fc1cc2[nH]cc(-c3cnn(CC4CCNCC4)c3)c2cc1F [Example 44]

["< 1 µM", "1 to 10 µM", "< 1 µM", "1 to 10 µM", "< 1 µM", "< 1 µM", "1 to 10 µM", "< 1 µM"]

* * *

quantity measured: melting point

Sample answers from the record:
CN(C)C(=O)N1CCC(n2cc(-c3c[nH]c4cc(F)ccc34)cn2)CC1	223 to 224.6 °C
Fc1cc2[nH]cc(-c3cnn(CC4CCNCC4)c3)c2cc1F	167.1 to 168.9 °C
CC(=O)NCCn1cc(-c2c[nH]c3cc(F)ccc23)cn1	179.5 to 180.8 °C

Record melting point for all entries; do not skip any.
1. O=C(CO)N1CCC(n2cc(-c3c[nH]c4cc(F)ccc34)cn2)CC1
2. O=S1(=O)CCC(Cn2cc(-c3c[nH]c4cc(F)ccc34)cn2)CC1
3. CC(Cn1cc(-c2c[nH]c3cc(F)ccc23)cn1)C(N)=O (single isomer, unassigned)
4. CC(=O)N1CCC(n2cc(-c3c[nH]c4cc(F)ccc34)cn2)CC1
5. CNCCn1cc(-c2c[nH]c3cc(F)ccc23)cn1

1: 99.9 to 102.1 °C; 2: 193.1 to 194.1 °C; 3: 184.5 to 185.5 °C; 4: 183.2 to 184.5 °C; 5: 94.2 to 95.2 °C

* * *

- test system: human recombinant TDO2 enzyme (Homo sapiens)
- test protocol: Assay for TDO2 enzymatic activity determination
- recorded conditions: human recombinant TDO2, L-Trp 1 mM, room temperature one hour, kynurenine absorbance at 480 nm
quantity measured: IC50

OCCN1CCC(n2cc(-c3c[nH]c4cc(F)ccc34)cn2)CC1	1 to 10 µM
CS(=O)(=O)CCn1cc(-c2c[nH]c3cc(F)ccc23)cn1	1 to 10 µM
O=C(CO)N1CCC(n2cc(-c3c[nH]c4cc(F)ccc34)cn2)CC1	1 to 10 µM
O=C(C1CC1)N1CCC(n2cc(-c3c[nH]c4cc(F)ccc34)cn2)CC1	1 to 10 µM

# context switch: different molecule, same IC50
Report the value of IC50 obtained on human recombinant TDO2 enzyme (Homo sapiens) for COC(=O)Cn1cc(-c2c[nH]c3cc(F)ccc23)cn1 . 1 to 10 µM

* * *

- test system: human recombinant TDO2 enzyme (Homo sapiens, UniProt P48775)
- test protocol: Assay for TDO2 enzymatic activity determination
- recorded conditions: human recombinant TDO2, L-Trp 1 mM, room temperature one hour, kynurenine absorbance at 480 nm
pIC50: −log10 of the molar value.
quantity measured: pIC50

Sample answers from the record:
O=C(O)CCn1cc(-c2c[nH]c3cc(F)c(F)cc23)cn1 [Example 17]	4.00 to 5.00
Fc1ccc2c(-c3cnn(-c4ccnnc4)c3)c[nH]c2c1 [Example 110]	5.00 to 6.00
CC(C)(C)C(=O)N1CCC(n2cc(-c3c[nH]c4cc(F)ccc34)cn2)CC1 [Example 87]	5.00 to 6.00
CNC(=O)[C@H]1C[C@@H](n2cc(-c3c[nH]c4cc(F)ccc34)cn2)C1 [Example 63]	5.00 to 6.00
NC(=O)NCCn1cc(-c2c[nH]c3cc(F)ccc23)cn1 [Example 22]	5.00 to 6.00

Record pIC50 for all entries; do not skip any.
1. Fc1ccc2c(-c3cnn(CC4CCNCC4)c3)c[nH]c2c1 [Example 43]
2. CNC(=O)NCCn1cc(-c2c[nH]c3cc(F)ccc23)cn1 [Example 23]
3. Fc1ccc2c(-c3cnn(-c4ccc(Cl)nn4)c3)c[nH]c2c1 [Example 108]
4. CN1CCN(CCn2cc(-c3c[nH]c4cc(F)ccc34)cn2)CC1 [Example 19]
5. O=C(O)CCC(=O)N1CCC(n2cc(-c3c[nH]c4cc(F)ccc34)cn2)CC1 [Example 80]
6. Fc1ccc2c(-c3cnn(CC4CCOCC4)c3)c[nH]c2c1 [Example 58]
7. O=C(O)CN1CCC(Cn2cc(-c3c[nH]c4cc(F)ccc34)cn2)CC1 [Example 49]

> 6.00
5.00 to 6.00
4.00 to 5.00
5.00 to 6.00
4.00 to 5.00
5.00 to 6.00
5.00 to 6.00

Record pIC50 for all entries; do not skip any.
1. Fc1ccc2c(-c3cnn(CCN4CCOCC4)c3)c[nH]c2c1 [Example 20]
2. NC(=O)CCn1cc(-c2c[nH]c3cc(F)ccc23)cn1 [Example 7]
3. Fc1ccc2c(-c3cnn(-c4ccncc4)c3)c[nH]c2c1 [Example 113]
4. Fc1cc2[nH]cc(-c3cnn(CC4CCNCC4)c3)c2cc1F [Example 44]
5. FC(F)(F)c1ccc2c(-c3cn[nH]c3)c[nH]c2c1 [Example 72]
6. CN(C)C(=O)Cn1cc(-c2c[nH]c3cc(F)ccc23)cn1 [Example 40]

1. 5.00 to 6.00
2. > 6.00
3. > 6.00
4. 5.00 to 6.00
5. 4.00 to 5.00
6. 5.00 to 6.00
